Data origin: patent US11691977B2

System: human MDR1 P-gp
test_protocol: Assessment of efflux in MDCK cells transfected with the human MDR1 gene (MDCK assay)
Format: in vitro ADME, canine
measurement_parameters: dog; MDCK-MDR1, apical-to-basal, pH 7.4, 37° C.
Procedure: Assessment of Efflux in Madin-Darby Canine Kidney Cells Transfected with the Human MDR1 Gene (MDCK Assay) Apparent permeability coefficients (PE) of the compounds across the MDCK-MDR1 cell monolayers are measured (pH 7.4, 37° C.) in apical-to-basal (AB) and basal-to-apical (BA) transport direction. […]
measured_quantity: Papp A→B (×10⁻⁶ cm/s)
Number only, in ×10⁻⁶ cm/s; omit the unit.

Ask: For Cc1nn2cc(C3CC3)cnc2c1C(=O)NC1(c2ccc(C(F)(F)F)cn2)CCOCC1 [Example 25] , what is its reported Papp A→B?
Result: 100
